Taken from the supplement of paper PMC10627819.

Measured Bliss interaction score, listed per entry.
Test system: S. aureus Newman;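 note: first quartile when negative (synergy) and third quartile when positive (antagonism)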
Assay explanation: Bliss interaction score (quartile over a dose matrix) (fitness difference); higher = more antagonism (negative = synergy)
Answer using only a numeral; do not append any unit.

INSERT INTO assay_data (compound, assayed_target, reported_measurement) VALUES
  ('CC[C@H]1OC(=O)[C@H](C)[C@@H](O[C@H]2C[C@@](C)(OC)[C@@H](O)[C@H](C)O2)[C@H](C)[C@@H](O[C@@H]2O[C@H](C)C[C@H](N(C)C)[C@H]2O)[C@](C)(O)C[C@@H](C)C(=O)[C@H](C)[C@@H](O)[C@]1(C)O [Erythromycin] + CO[C@@H]1[C@@H](OC(N)=O)[C@@H](O)[C@H](Oc2ccc3c(O)c(NC(=O)c4ccc(O)c(CC=C(C)C)c4)c(=O)oc3c2C)OC1(C)C [Novobiocin]', 'S. aureus Newman', 0.0699);

Qu. Look up Bliss interaction score: CO[C@@H]1[C@@H](OC(N)=O)[C@@H](O)[C@H](Oc2ccc3c(O)c(NC(=O)c4ccc(O)c(CC=C(C)C)c4)c(=O)oc3c2C)OC1(C)C [Novobiocin] + COc1cc(Cc2cnc(N)nc2N)cc(OC)c1OC [Trimethoprim]
Ans. 0.0627
